FYI, the data here is from ChEMBL document CHEMBL1143683.

# reported inhibition; entries follow
Biological target: Tubulin (Homo sapiens) (UniProt P68371+Q9H4B7+P0DPH7+P68366+Q13509+Q71U36+P04350+Q3ZCM7+P07437+P68363+Q9BQE3+Q6PEY2+Q13885+Q9BVA1+Q9BUF5)
Experiment: Inhibition of [3H]colchicine binding to tubulin at 5 uM
Assay type: protein-complex assay
Give just the numeric value; % need not be written.

• COc1ccc2[nH]c(C)c(Sc3cc(OC)c(OC)c(OC)c3)c2c1 = 69
• Cc1cc(C)cc(Sc2c[nH]c3ccc(Cl)cc23)c1 = 33
• COc1cc(Sc2c[nH]c3ccc(F)cc23)cc(OC)c1OC = 39

Query :: Could you share which inhibition value was measured for COc1cc(Sc2c[nH]c3ccc(O)cc23)cc(OC)c1OC ?
Result :: 26

Query :: Look up inhibition for this compound: COc1cc(Sc2c[nH]c3ccc(I)cc23)cc(OC)c1OC
Result :: 61

Query :: Need inhibition of COc1cc(Sc2c(C)[nH]c3ccccc23)cc(OC)c1OC , thanks.
Result :: 61
